- Tested on: Human immunodeficiency virus 1
- test: Antiviral activity against HIV1
- Assay type: functional, organism-based

# smiles text, unit info, EC50
data = [
    ("O=C(CC(=O)C(=O)O)CC(=O)c1ccccc1Cl", "µM", 120),
]

---

- target or test system: Human immunodeficiency virus type 1 integrase (Human immunodeficiency virus 1, UniProt Q7ZJM1)
pIC50: −log10 of the molar value.

# smiles text, pIC50
measured = [
    ("O=C(/C=C(\\O)C(=O)O)CCc1ccccc1", 4.52),
    ("O=C(/C=C(\\O)C(=O)O)CCc1ccccc1Cl", 4.59),
    ("O=C(CC(=O)c1nnn[nH]1)CC(=O)c1ccccc1Cl", 3.90),
    ("O=C(CC(=O)C(=O)O)CC(=O)c1ccccc1Cl", 6.00),
    ("O=C(CC(=O)C(=O)O)CC(=O)c1ccccn1", 4.00),
    ("O=C(CC(=O)C(=O)O)CC(=O)c1ccc(-c2ccccc2)cc1", 5.70),
    ("O=C(CC(=O)C(=O)O)CC(=O)c1cccc2ccccc12", 6.22),
]
